Target: α-Glucosidase from Baker's yeast
Experiment: α-Glucosidase inhibitory assay (p-NPG substrate, 96-well plate)
Settings: isolated compounds; test concentrations 125 to 2000 μM; mean ± SD
Items are presented alongside their recorded IC50.
A number alone suffices; assume µM.

These solved cases illustrate the format of a correct answer.
>  <COMPOUND>
O=C(OC[C@H]1O[C@@H](OC(=O)c2cc(O)c(O)c(O)c2)[C@H](OC(=O)c2cc(O)c(O)c(O)c2)[C@@H](OC(=O)c2cc(O)c(O)c(O)c2)[C@@H]1O)c1cc(O)c(O)c(O)c1 [Compound 3, 1,2,3,6-Tetra-O-galloyl-β-D-glucoside]

>  <UNIT_NAME>
µM

>  <QUANTITATIVE_READOUT>
243

$$$$
>  <COMPOUND>
O=C(O)c1ccc(O)c(O)c1 [Compound 7, 3,4-Dihydroxybenzoic acid]

>  <UNIT_NAME>
µM

>  <QUANTITATIVE_READOUT>
425

$$$$
>  <COMPOUND>
O=C(O)c1cc(O)c(O)c(O)c1 [Compound 6, Gallic acid]

>  <UNIT_NAME>
µM

>  <QUANTITATIVE_READOUT>
313

$$$$

Here is the next item to consider.
Enter reported IC50 observed with α-Glucosidase from Baker's yeast for O=c1c(O)c(-c2ccc(O)c(O)c2)oc2cc(O)cc(O)c12 [Compound 13, Quercetin] 138
